I'd be grateful if you could share measured pIC50 for these entries.
test system: PRV; assay: microbe, parasite or virus in culture; type: cell-based, pseudorabies virus; conditions: Suid alphaherpesvirus 1, HeLa, 24 h
Numbers only, as −log10 of the molar value.

In the examples that follow, each entry is paired with its recorded pIC50.
molecule: COc1ccc2c3ccnc(C)c3n(C)c2c1 [Compound 3, 9-methyl-harmine]
experimental_system: PRV
experimental_readout: pIC50
result_number: 6.28

molecule: Nc1nc2c(ncn2COCCO)c(=O)[nH]1 [Acyclovir]
experimental_system: PRV
experimental_readout: pIC50
result_number: 5.55

Lab note: COc1ccc2c(c1)[nH]c1c(C)nccc12 [Compound 2, harmine] gave pIC50 of 5.92

====

cytotoxicity / cell viability at the concentration used data for DF-1 cells follow.
experimental_readout: cytotoxicity / cell viability at the concentration used

compound: CCN(c1nc(N)c(C(=O)N=C(N)N)nc1Cl)C(C)C [EIPA, 5-[N-ethyl-N-isopropyl] amiloride]
experimental_system: DF-1 cells
result: without cytotoxicity

compound: COc1ccc2c(c1)[nH]c1c(C)nccc12 [Compound 2, harmine]
experimental_system: DF-1 cells
result: without cytotoxicity

compound: CCn1c2ccccc2c2cc(Nc3ccnc(NCCCN4CCOCC4)n3)ccc21 [EHop-016]
experimental_system: DF-1 cells
result: without cytotoxicity
